Test: AUC (0 to last) in CD-1 mouse at 10 mg/kg, po
Assay type: ADME, organism-based
Parameters: dose 10 mg/kg, route oral, time 0 - last
Conditions: in vivo
EXPERIMENTAL_READOUT: AUC(0-t) (µM·h)
State the answer as a number, implicitly in µM·h.

*Q* Tell me the measured AUC(0-t) of "Cc1ccc(NC(=O)c2ccc(CN3CCN(C)CC3)c(C(F)(F)F)c2)cc1NC(=O)c1cccc(-c2cnn(C)c2)c1" , please.
*A* 0.16

*Q* What AUC(0-t) value was documented for this compound, "Cc1ccc(NC(=O)c2cccc(C(F)(F)F)c2)cc1NC(=O)c1cncc(-c2cnn(C)c2)c1" ?
*A* 6.94

====

System: RAW264.7
Test: Growth inhibition of mouse RAW264.7 cells at 1 uM after 72 hrs by CellTiter-Glo luminescent assay relative to control
Type: functional
Active and inactive are the calls of the source. The calls are words filed in the database; no cut-off is given here.

| SMILES_CODE | growth inhibition (GI) |
| --- | --- |
| Cc1ccc(NC(=O)c2ccc(CN3CCN(C)CC3)c(C(F)(F)F)c2)cc1NC(=O)c1cccc(-c2cncnc2)c1 | inactive |
| Cc1ccc(NC(=O)c2cccc(C(F)(F)F)c2)cc1NC(=O)c1cncc(-c2cnn(C)c2)c1 | inactive |
| Cc1ncc(NC(=O)c2cccc(C(F)(F)F)c2)cc1NC(=O)c1cncc(-c2cnn(C)c2)c1 | inactive |

====

Assay: Clearance in iv dosed mouse
Assay type: ADME, organism-based
Settings: in vivo
EXPERIMENTAL_READOUT: clearance (mL/min/kg)
Give just the numeric value; mL/min/kg need not be written.

*Q* Dear colleague, I am looking for the recorded clearance of the following compound: "Cc1ccc(NC(=O)c2ccc(CN3CCN(C)CC3)c(C(F)(F)F)c2)cc1NC(=O)c1cccc(-c2cnn(C)c2)c1"
*A* 210

Where do the numbers come from? From ChEMBL document CHEMBL4017453.
